Each recorded value in this set is attributed to the NIST ThermoML archive (doi:10.1016/j.jct.2017.08.004).

# ASSAY_COMMENT: molar heat capacity at constant pressure
# PARTICULARS: 331.15 K; 101.33 kPa; Crystal; Small sample (50 mg) DSC
The threshold is 200 J/K/mol. Values of molar heat capacity at constant pressure beneath it are tagged rule met; values meeting or exceeding it are tagged rule not met.

Example entries begin here.
[
  {
    "COMPOUND": "O[C@H]1[C@H](O)[C@@H](O)[C@H](O)[C@@H](O)[C@H]1O [cis-1,2,3,5-trans-4,6-cyclohexanehexol]",
    "LABEL": "rule not met"
  },
  {
    "COMPOUND": "OC[C@@H](O)[C@H](O)[C@@H](O)CO",
    "LABEL": "rule not met"
  },
  {
    "COMPOUND": "OC[C@H](O)C(O)[C@@H](O)CO [L-(-)-arabitol]",
    "LABEL": "rule not met"
  },
  {
    "COMPOUND": "OC[C@@H](O)[C@@H](O)CO",
    "LABEL": "rule met"
  },
  {
    "COMPOUND": "OC[C@@H](O)[C@@H](O)[C@H](O)[C@H](O)CO",
    "LABEL": "rule not met"
  }
]

We now examine a further compound.
Prompt: Strictly below 200 J/K/mol in molar heat capacity at constant pressure? OC[C@@H](O)C(O)[C@H](O)CO
Response: rule not met

----------
# ASSAY_COMMENT: molar heat capacity at constant pressure
# PARTICULARS: 321.15 K; 101.33 kPa; Crystal; Small sample (50 mg) DSC
Lab note - cut at 200 J/K/mol for molar heat capacity at constant pressure: class 1 if strictly below, class 0 if not.

Previously resolved entries follow.
[
  {
    "MOLECULE": "OC[C@@H](O)[C@@H](O)[C@H](O)[C@H](O)CO",
    "LABEL": "class 0"
  },
  {
    "MOLECULE": "O[C@H]1[C@H](O)[C@@H](O)[C@H](O)[C@@H](O)[C@H]1O [cis-1,2,3,5-trans-4,6-cyclohexanehexol]",
    "LABEL": "class 0"
  },
  {
    "MOLECULE": "OC[C@@H](O)C(O)[C@H](O)CO",
    "LABEL": "class 0"
  },
  {
    "MOLECULE": "OC[C@@H](O)[C@H](O)[C@@H](O)CO",
    "LABEL": "class 0"
  },
  {
    "MOLECULE": "OC[C@H](O)C(O)[C@@H](O)CO [L-(-)-arabitol]",
    "LABEL": "class 0"
  }
]

Note: attention shifts to another entry.
Prompt: Regarding OC[C@@H](O)[C@@H](O)CO , kindly confirm whether its molar heat capacity at constant pressure is beneath 200 J/K/mol.
Response: class 1

----------
Reported molar heat capacity at constant pressure values for a set of compounds
# ASSAY_COMMENT: molar heat capacity at constant pressure
# PARTICULARS: 264.15 K; 101.33 kPa; Crystal; Small sample (50 mg) DSC
Could you give me the number in J/K/mol? Just the number is fine.

Here's what some known entries look like.
[
  {
    "COMPOUND": "OC[C@H](O)C(O)[C@@H](O)CO [L-(-)-arabitol]",
    "molar heat capacity at constant pressure (J/K/mol)": 183.52
  },
  {
    "COMPOUND": "O[C@H]1[C@H](O)[C@@H](O)[C@H](O)[C@@H](O)[C@H]1O [cis-1,2,3,5-trans-4,6-cyclohexanehexol]",
    "molar heat capacity at constant pressure (J/K/mol)": 191.84
  }
]

Prompt: Any idea what its molar heat capacity at constant pressure is? The compound is OC[C@@H](O)[C@@H](O)CO [meso-1,2,3,4-butanetetrol]
Response: 146.16

Prompt: // next record OC[C@@H](O)C(O)[C@H](O)CO [D-arabitol]
Response: 176.94

Prompt: Also, OC[C@@H](O)[C@H](O)[C@@H](O)CO [xylitol] please.
Response: 184.93

Prompt: Record: OC[C@@H](O)[C@@H](O)[C@H](O)[C@H](O)CO [D-mannitol]
Response: 205.1

----------
molar heat capacity at constant pressure overview
# ASSAY_COMMENT: molar heat capacity at constant pressure
# PARTICULARS: 40 K; 101.33 kPa; Crystal; relaxation calorimetry
Give the quantity in J/K/mol, number only.

[
  {
    "COMPOUND": "OC[C@@H](O)[C@H](O)[C@@H](O)CO",
    "UOM": "J/K/mol",
    "molar heat capacity at constant pressure": 23.95
  },
  {
    "COMPOUND": "OC[C@@H](O)[C@@H](O)[C@H](O)[C@H](O)CO",
    "UOM": "J/K/mol",
    "molar heat capacity at constant pressure": 30.07
  },
  {
    "COMPOUND": "O[C@H]1[C@H](O)[C@@H](O)[C@H](O)[C@@H](O)[C@H]1O [cis-1,2,3,5-trans-4,6-cyclohexanehexol]",
    "UOM": "J/K/mol",
    "molar heat capacity at constant pressure": 23.68
  },
  {
    "COMPOUND": "OC[C@@H](O)C(O)[C@H](O)CO",
    "UOM": "J/K/mol",
    "molar heat capacity at constant pressure": 26.29
  },
  {
    "COMPOUND": "OC[C@H](O)C(O)[C@@H](O)CO [L-(-)-arabitol]",
    "UOM": "J/K/mol",
    "molar heat capacity at constant pressure": 26.56
  }
]

Turning now to a further compound:
Prompt: Given the compound OC[C@@H](O)[C@@H](O)CO , what is its reported molar heat capacity at constant pressure?
Response: 22.84

----------
molar heat capacity at constant pressure listing for selected compounds.
# ASSAY_COMMENT: molar heat capacity at constant pressure
# PARTICULARS: 210 K; 101.33 kPa; Crystal; relaxation calorimetry
Please respond with the number in J/K/mol and leave the unit unwritten.

Examples with answers:
[
  {
    "COMPOUND": "OC[C@H](O)C(O)[C@@H](O)CO [L-(-)-arabitol]",
    "molar heat capacity at constant pressure, J/K/mol": 148.19
  },
  {
    "COMPOUND": "OC[C@@H](O)[C@H](O)[C@@H](O)CO",
    "molar heat capacity at constant pressure, J/K/mol": 148.6
  },
  {
    "COMPOUND": "OC[C@@H](O)[C@@H](O)[C@H](O)[C@H](O)CO",
    "molar heat capacity at constant pressure, J/K/mol": 167.07
  },
  {
    "COMPOUND": "OC[C@@H](O)C(O)[C@H](O)CO",
    "molar heat capacity at constant pressure, J/K/mol": 146.63
  },
  {
    "COMPOUND": "OC[C@@H](O)[C@@H](O)CO",
    "molar heat capacity at constant pressure, J/K/mol": 120.31
  }
]

Moving on to the next compound.
Prompt: Item O[C@H]1[C@H](O)[C@@H](O)[C@H](O)[C@@H](O)[C@H]1O [cis-1,2,3,5-trans-4,6-cyclohexanehexol] has what recorded molar heat capacity at constant pressure?
Response: 152.96

----------
# ASSAY_COMMENT: molar heat capacity at constant pressure
# PARTICULARS: 285.15 K; 101.33 kPa; Crystal; Small sample (50 mg) DSC
Could you label it Criterion met if measured molar heat capacity at constant pressure is 200 J/K/mol or higher, and Criterion not met otherwise?

Completed entries (count: 3):
[
  {
    "COMPOUND": "OC[C@@H](O)[C@@H](O)[C@H](O)[C@H](O)CO",
    "LABEL": "Criterion met"
  },
  {
    "COMPOUND": "OC[C@@H](O)C(O)[C@H](O)CO",
    "LABEL": "Criterion not met"
  },
  {
    "COMPOUND": "O[C@H]1[C@H](O)[C@@H](O)[C@H](O)[C@@H](O)[C@H]1O [cis-1,2,3,5-trans-4,6-cyclohexanehexol]",
    "LABEL": "Criterion met"
  }
]

Prompt: Say whether OC[C@@H](O)[C@@H](O)CO shows molar heat capacity at constant pressure of 200 J/K/mol or more.
Response: Criterion not met

----------
# ASSAY_COMMENT: molar heat capacity at constant pressure
# PARTICULARS: 291.15 K; 101.33 kPa; Crystal; Small sample (50 mg) DSC
// boundary case: molar heat capacity at constant pressure equal to 200 J/K/mol maps to false; strictly smaller maps to true

[
  {
    "COMPOUND": "OC[C@@H](O)[C@@H](O)[C@H](O)[C@H](O)CO [D-mannitol]",
    "LABEL": "false"
  },
  {
    "COMPOUND": "OC[C@@H](O)[C@@H](O)CO [meso-1,2,3,4-butanetetrol]",
    "LABEL": "true"
  }
]

Then there is this compound:
Prompt: Strictly below 200 J/K/mol: is that where molar heat capacity at constant pressure of O[C@H]1[C@H](O)[C@@H](O)[C@H](O)[C@@H](O)[C@H]1O [cis-1,2,3,5-trans-4,6-cyclohexanehexol] sits?
Response: false
